Origin of the recorded values: patent US10653693B2

- System: Granta-519
- EXPERIMENT DESCRIPTION: Long-term proliferation (LTP) assay
- Type: cell-based
- ASSAY CONDITIONS: Homo sapiens, 264 h, 11-day treatment, N = 1, read-out: Formula B LTP IC50
RESULT TYPE: IC50 (nM)
Give just the numeric value; nM need not be written.

Reported IC50 (Granta-519) for entry CC(=O)N1CCC(Nc2cc(C(=O)NC[C@H](O)CN3CCc4ccccc4C3)ccn2)CC1 [Formula B] is 12

====

- Tested on: MiaPaca-2 cells
- EXPERIMENT DESCRIPTION: 2D-proliferation assay
- Format: cell-based
- ASSAY CONDITIONS: Homo sapiens, MIA PaCa-2, 96 h, Day 4, read-out: growth inhibitory concentration (gIC50)
RESULT TYPE: pIC50
Just so you know, pIC50 here is -log10 of the concentration in molar units; reply with that number alone.

Sure, the documented pIC50 for `O=C(COc1cccc2cccnc12)NC[C@@H](O)CN1CCc2ccccc2C1` is 6.46
